- Assay System: human somatostatin receptor subtype 2 (Homo sapiens, UniProt P30874)
- Construct: expressed in transfected cells
- Sequence (P30874 whole entry): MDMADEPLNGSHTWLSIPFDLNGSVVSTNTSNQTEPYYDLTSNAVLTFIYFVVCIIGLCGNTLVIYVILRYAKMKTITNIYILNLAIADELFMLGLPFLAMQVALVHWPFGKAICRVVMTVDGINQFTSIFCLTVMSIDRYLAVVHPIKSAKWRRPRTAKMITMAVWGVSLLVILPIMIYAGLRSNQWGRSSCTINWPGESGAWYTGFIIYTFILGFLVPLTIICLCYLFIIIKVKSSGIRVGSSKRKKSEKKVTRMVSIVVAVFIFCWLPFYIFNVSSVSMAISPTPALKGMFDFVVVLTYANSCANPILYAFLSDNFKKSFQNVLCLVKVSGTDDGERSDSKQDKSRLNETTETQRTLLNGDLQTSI
- Experiment Description: Functional cAMP assay for SSTR2 agonists (HTRF) in CHO-K1 cells
- Type: cell-based
- Recorded Conditions: CHO-K1 cells stably expressing human SST2, 20 min; read-out: hSST2 cAMP Avg EC50
Starred links: 1 amine or outer side, 2 acyl side, 3 side chain; linkers in the order of their positions; H or OH if unused. Non-standard residues stand in square brackets, D forms with d. Residues, ends and D or L forms follow the SMILES beside them. *: point of attachment. PABC(3-O-βDGlc) = O=C(OCc1ccc(N[*:1])c(O[C@@H]2O[C@H](CO)[C@@H](O)[C@H](O)[C@H]2O)c1)[*:2]; X1 = Cc1cc(F)cc(-c2cnc(NCCNC(=O)CCOCCC(=O)*)c(-c3nc4ccc(Cl)cc4[nH]3)c2N2CCC(N)CC2)c1; Dolaproine = CO[C@@H]([C@@H]1CCCN1)[C@@H](C)C(=O)O; Dil = CC[C@H](C)[C@H](NC)[C@@H](CC(=O)O)OC; X2 = C[C@@H](N*)[C@@H](O)c1ccccc1; NMeV = CN[C@H](C(=O)O)C(C)C
Property Measured: pEC50
Numbers only, as −log10 of the molar value.

Q: What does the record list as pEC50 for CC[C@H](C)[C@@H]([C@@H](CC(=O)N1CCC[C@H]1[C@H](OC)[C@@H](C)C(=O)N[C@H](C)[C@@H](O)c1ccccc1)OC)N(C)C(=O)[C@@H](NC(=O)[C@H](C(C)C)N(C)C(=O)OCc1ccc(NC(=O)[C@H](C)NC(=O)[C@@H](NC(=O)[C@H](CCC(=O)O)NC(=O)CCOCCC(=O)NCCNc2ncc(-c3cc(C)cc(F)c3)c(N3CCC(N)CC3)c2-c2nc3ccc(Cl)cc3[nH]2)C(C)C)c(O[C@@H]2O[C@H](CO)[C@@H](O)[C@H](O)[C@H]2O)c1)C(C)C [Compound 67] (X1-EVA[PABC(3-O-βDGlc)][NMeV]V[Dil][Dolaproine]-X2) ?
Ans: 9.72

Consider the additional compound presented here.
Q: What does the record list as pEC50 for CC[C@H](C)[C@@H]([C@@H](CC(=O)N1CCC[C@H]1[C@H](OC)[C@@H](C)C(=O)N[C@H](C)[C@@H](O)c1ccccc1)OC)N(C)C(=O)[C@@H](NC(=O)[C@H](C(C)C)N(C)C(=O)OCc1ccc(NC(=O)[C@H](CCCNC(N)=O)NC(=O)[C@@H](NC(=O)[C@H](CS(=O)(=O)O)NC(=O)CCOCCOCCOCCOCCC(=O)NCCNc2ncc(-c3cc(C)cc(F)c3)c(N3CCC(N)CC3)c2-c2nc3ccc(Cl)cc3[nH]2)C(C)C)cc1C(=O)NCCN)C(C)C [Compound 157] ?
Ans: 9.77
